Target: T1, human EphA7 (Homo sapiens, UniProt Q15375)
T1 construct: a protein of the extracellular region of each human Eph receptor fused with the SEAP protein and the His tag; made in house; host or cells: Expi293F cells (culture supernatant)
T1 sequence (Q15375 28-555 limits assumed): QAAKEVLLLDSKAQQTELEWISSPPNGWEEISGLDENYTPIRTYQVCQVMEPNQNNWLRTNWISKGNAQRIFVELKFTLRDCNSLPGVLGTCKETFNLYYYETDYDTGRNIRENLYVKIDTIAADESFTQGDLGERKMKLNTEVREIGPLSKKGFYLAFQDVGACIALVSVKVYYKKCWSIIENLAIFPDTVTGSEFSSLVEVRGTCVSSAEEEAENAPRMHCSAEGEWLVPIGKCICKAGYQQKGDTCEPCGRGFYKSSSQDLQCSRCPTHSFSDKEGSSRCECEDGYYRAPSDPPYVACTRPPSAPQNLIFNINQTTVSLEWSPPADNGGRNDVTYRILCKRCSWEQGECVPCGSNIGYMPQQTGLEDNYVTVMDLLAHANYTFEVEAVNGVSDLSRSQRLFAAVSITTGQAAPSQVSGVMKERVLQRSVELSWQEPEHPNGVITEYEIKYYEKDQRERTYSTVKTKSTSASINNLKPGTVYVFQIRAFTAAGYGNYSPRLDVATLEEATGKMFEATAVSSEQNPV
Test: Selectivity ELISA of humanized antibodies for human Eph receptor
Assay type: binding
Settings: coated protein 1 nM
Measured attribute: hEphA7-SEAP-: absorbance at 450 nm, percentage with respect to hEphA4-SEAP-His as 100% (%)
Form entry: value (%) — number only.

Entry 92 (antibody, V domains shown, constant regions without entry; synthetic humanized antibody light chain variable region sequence; synthetic humanized antibody heavy chain variable region sequence) VL: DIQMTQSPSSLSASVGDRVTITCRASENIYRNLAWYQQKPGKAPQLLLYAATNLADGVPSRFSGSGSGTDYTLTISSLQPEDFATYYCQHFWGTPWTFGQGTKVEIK VH: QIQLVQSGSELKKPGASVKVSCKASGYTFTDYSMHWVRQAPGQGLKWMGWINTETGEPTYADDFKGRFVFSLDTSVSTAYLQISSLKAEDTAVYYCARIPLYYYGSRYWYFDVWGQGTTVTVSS — recorded hEphA7-SEAP-: absorbance at 450 nm, percentage with respect to hEphA4-SEAP-His as 100% = 6.4

Data point: 142 (antibody, V domains shown, synthetic humanized antibody heavy chain variable region sequence; synthetic humanized antibody light chain variable region sequence) VH: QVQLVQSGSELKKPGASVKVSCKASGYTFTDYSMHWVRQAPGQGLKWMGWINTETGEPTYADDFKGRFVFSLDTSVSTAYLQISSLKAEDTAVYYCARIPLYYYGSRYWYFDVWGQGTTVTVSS VL: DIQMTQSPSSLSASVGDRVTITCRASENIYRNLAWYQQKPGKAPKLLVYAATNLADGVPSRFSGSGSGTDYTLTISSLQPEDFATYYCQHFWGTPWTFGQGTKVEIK ; hEphA7-SEAP-: absorbance at 450 nm, percentage with respect to hEphA4-SEAP-His as 100% = 5.5
